Data origin: ChEMBL document CHEMBL1153746

experiment: Cytotoxicity against human LXFL 529L cells after 4 days by propidium iodide assay; format: functional, cell-based; conditions: 96 h
Task for the reader: assign each of the following compounds its reported pIC50.
Entry type: numeric. Quantity: pIC50, the -log10 of concentration in molar units.

pIC50 in this record for CNC1=CC(=O)c2c(cnc(C)c2C)C1=O : 4.91

pIC50 in this record for CNC1=CC(=O)c2cc(C)ncc2C1=O : 5.31

pIC50 in this record for CNC1=CC(=O)c2cc(C(=O)OC)ncc2C1=O : 7.05

pIC50 in this record for CNC1=C(Cl)C(=O)c2cc(C)ncc2C1=O : 5.81
